List of Ki tested on Serine/threonine-protein kinase mTOR (Homo sapiens).
measured property: Ki (nM)

A = Cc1nc(N)nc2c1cc(-c1cn[nH]c1)c(=O)n2C(C)C
B = Cc1nc(N)nc2c1cc(-c1cn[nH]c1)c(=O)n2C1CC1
Challenge: Between the two listed entries A and B , which has its Ki at the higher number? Lab note: record the label of whichever item you select.
Response given: B
(B: 190 nM, A: 23.5 nM)

---

# test method notes: Volume of distribution at steady state in rat at 2 mg/kg, iv
# Assay type: ADME, organism-based
# Set-up: dose 2 mg/kg, route intravenous
# stated conditions: in vivo, read-out: Vdss
measured property: Vd (L/kg)
State just the number; it will be interpreted in L/kg.

Challenge: May I ask what Vd has been recorded for Cc1nc(N)nc2c1cc(-c1cn[nH]c1)c(=O)n2N1CCCC1 ?
Response given: 2.9
